Target entity: cruzain (Trypanosoma cruzi, UniProt P25779);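 also: at 5 µM compound concentration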
Sequence (P25779 123-337 limits assumed): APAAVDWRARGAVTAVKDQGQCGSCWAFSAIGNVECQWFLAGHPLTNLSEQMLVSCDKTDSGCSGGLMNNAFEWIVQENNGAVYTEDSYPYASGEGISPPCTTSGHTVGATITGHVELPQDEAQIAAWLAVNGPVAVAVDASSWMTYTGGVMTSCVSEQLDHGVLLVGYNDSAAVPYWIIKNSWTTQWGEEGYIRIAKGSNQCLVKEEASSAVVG
Assay protocol: biochemical
Applied conditions: 0’ (no pre-incubation); sheet Screening results
Experimental readout: Cruzain Inhibition 0’

{"Compound": "c1csc(-c2cnc3sc(NCC4CCOCC4)nn23)c1 [MMV010764]", "Observed measurement": "14%"}
{"Compound": "O=C(Nc1ccnc(-c2cccnc2)n1)c1cc(C(F)(F)F)cc(C(F)(F)F)c1 [MMV019838]", "Observed measurement": "2%"}
{"Compound": "N#Cc1ccc(-c2ccc(OCC(N)=O)cc2)cc1 [MMV053220]", "Observed measurement": "-9%"}
{"Compound": "c1ccc(Oc2ccc(-c3cc(C4CCOCC4)[nH]n3)cc2)cc1 [MMV687762]", "Observed measurement": "9%"}
{"Compound": "Cc1ccc(NC(=O)CC2COc3ccccc3O2)cc1Cl (stereo not shown) [MMV676431]", "Observed measurement": "0.5%"}
{"Compound": "COc1ccc(OC(C)C(=O)Nc2ccc(Cl)cc2C)cc1 (stereo not shown) [MMV202458]", "Observed measurement": "-14%"}
{"Compound": "CNC(=O)c1cc(S(=O)(=O)N2CCN(c3ccccn3)CC2)cs1 [MMV020136]", "Observed measurement": "5%"}
{"Compound": "O=C(Nc1ccc2c(c1)B(O)OC2)c1ccccc1C(F)(F)F [MMV652003]", "Observed measurement": "22%"}
{"Compound": "CNc1nnc(Sc2cnn(-c3ccccc3)c(=O)c2Cl)s1 [MMV688763]", "Observed measurement": "6%"}
{"Compound": "COc1ccc(CN2CCOc3ccc(C(C)(O)CN(C)C)cc3C2)cc1C (stereo not shown) [MMV008439]", "Observed measurement": "0.3%"}

* * *

Target entity: TbrCatL (Trypanosoma brucei rhodesiense, UniProt Q95PM0)
Construct: Conor Caffrey (University of California San Diego)
Sequence (Q95PM0 entry or part of it): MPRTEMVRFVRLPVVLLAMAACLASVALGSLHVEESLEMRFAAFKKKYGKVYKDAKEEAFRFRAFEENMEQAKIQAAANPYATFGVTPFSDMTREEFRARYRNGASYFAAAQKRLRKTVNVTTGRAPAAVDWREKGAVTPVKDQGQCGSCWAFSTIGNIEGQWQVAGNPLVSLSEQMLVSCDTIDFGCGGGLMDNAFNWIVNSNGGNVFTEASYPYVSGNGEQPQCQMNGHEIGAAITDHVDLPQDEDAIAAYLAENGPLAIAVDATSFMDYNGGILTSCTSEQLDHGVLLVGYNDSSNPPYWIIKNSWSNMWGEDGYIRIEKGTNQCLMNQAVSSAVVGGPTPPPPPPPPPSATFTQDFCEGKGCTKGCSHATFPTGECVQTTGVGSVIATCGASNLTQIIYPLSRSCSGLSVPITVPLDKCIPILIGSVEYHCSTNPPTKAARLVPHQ
Assay protocol: TbrCatL enzymatic inhibition assay (cleavage of fluorogenic substrate Z-FR-AMC);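 also: at 5 µM compound concentration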
Format: biochemical
Applied conditions: 0’ (no pre-incubation); sheet Screening results
Protocol: Allison Doak and Prof. Brian Shoichet (University of California San Francisco, San Francisco, CA, USA) and Prof. Conor Caffrey (University of California San Diego, San Diego, CA, USA) generously provided recombinant cruzain and TbrCatL, respectively. In vitro activity of proteases cruzain and TbrCatL was assayed as previously described. Briefly, enzyme activity was measured by monitoring the cleavage of the fluorogenic substrate Z-Phe-Arg-amidomethylcoumarin (Z-FR-AMC) at 25 °C. […]
Experimental readout: TbrCatL Inhibition 0’ (%)

{"Compound": "CS(=O)(=O)Cc1nc2ccccc2oc1=O", "Experimental readout": "TbrCatL Inhibition 0’", "Observed measurement": 19}
{"Compound": "CNC1C(OC2C(OC3C(O)C(O)C(N=C(N)N)C(O)C3N=C(N)N)OC(C)C2(O)C=O)OC(CO)C(O)C1O (stereo not drawn)", "Experimental readout": "TbrCatL Inhibition 0’", "Observed measurement": 1.1}
{"Compound": "O=C(NC1CCCCC1)N1CCN(Cc2ccc3c(c2)OCO3)CC1", "Experimental readout": "TbrCatL Inhibition 0’", "Observed measurement": 9}
{"Compound": "COc1ccc(OC(C)C(=O)Nc2ccc(Cl)cc2C)cc1 (stereo not drawn)", "Experimental readout": "TbrCatL Inhibition 0’", "Observed measurement": -16}
{"Compound": "Cc1cccnc1NC(=O)c1cccc(OCc2c(C)noc2C)c1", "Experimental readout": "TbrCatL Inhibition 0’", "Observed measurement": 14}
{"Compound": "COc1ccc(-c2nc(-c3cccc(NC(=O)Cc4ccc(F)cc4)c3)no2)cc1OC", "Experimental readout": "TbrCatL Inhibition 0’", "Observed measurement": 8}
{"Compound": "CC(C)(C)n1nc(Cc2ccc(F)c(Cl)c2)c2c(N)ncnc21", "Experimental readout": "TbrCatL Inhibition 0’", "Observed measurement": -2.7}
{"Compound": "COC(=O)c1c(NC(=O)c2cc3ccccc3oc2=O)sc2c1CCN(Cc1ccccc1)C2", "Experimental readout": "TbrCatL Inhibition 0’", "Observed measurement": 0.5}
{"Compound": "COc1ccccc1CNC(=O)c1cc(C2CC2)nc2c1cnn2C(C)C", "Experimental readout": "TbrCatL Inhibition 0’", "Observed measurement": 2.7}
